B1: library; numbered along this chain (parent)
chain: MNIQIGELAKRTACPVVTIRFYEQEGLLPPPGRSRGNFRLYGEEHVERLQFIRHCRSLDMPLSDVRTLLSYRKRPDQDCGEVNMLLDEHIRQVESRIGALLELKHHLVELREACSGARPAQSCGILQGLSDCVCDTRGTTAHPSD

Variants of: B1
Assay text: sfGFP reporter fluorescence (15 h) (µM FITC); higher = stronger transcriptional activation
Condition set: library round: Round 0; ligand: 1 µM Pb
Endpoint: sfGFP reporter fluorescence
Output: the number by itself.

Worked examples, 4 variants total:
>  <Variant key>
L68G

>  <sfGFP reporter fluorescence>
0.0583

$$$$
>  <Variant key>
Q121A

>  <sfGFP reporter fluorescence>
0.0944

$$$$
>  <Variant key>
R20L

>  <sfGFP reporter fluorescence>
0.0597

$$$$
>  <Variant key>
I3W

>  <sfGFP reporter fluorescence>
0.0766

$$$$

Field sfGFP reporter fluorescence (entry `C123R` ) reads 0.061

Field sfGFP reporter fluorescence (entry `L110E` ) reads 0.0614

Field sfGFP reporter fluorescence (entry `C79P` ) reads 0.0577

Field sfGFP reporter fluorescence (entry `L126R` ) reads 0.0599

Field sfGFP reporter fluorescence (entry `I97A` ) reads 0.133

Field sfGFP reporter fluorescence (entry `Y22W` ) reads 0.142

Field sfGFP reporter fluorescence (entry `D135E` ) reads 0.0724

Field sfGFP reporter fluorescence (entry `D131G` ) reads 0.0991

Field sfGFP reporter fluorescence (entry `E109L` ) reads 0.0907

Field sfGFP reporter fluorescence (entry `D135F` ) reads 0.138

Field sfGFP reporter fluorescence (entry `C55G` ) reads 0.057

Field sfGFP reporter fluorescence (entry P61N D64K G128M ) reads 2.17

Field sfGFP reporter fluorescence (entry `L126D` ) reads 0.0581

Field sfGFP reporter fluorescence (entry `P15E` ) reads 0.088

Field sfGFP reporter fluorescence (entry `R39K` ) reads 0.0623

Field sfGFP reporter fluorescence (entry `G36K` ) reads 0.0922

Field sfGFP reporter fluorescence (entry `C79W` ) reads 0.0588

Field sfGFP reporter fluorescence (entry M60L P61N K104V G128M ) reads 1.69

Field sfGFP reporter fluorescence (entry `E94Y` ) reads 0.0553

Field sfGFP reporter fluorescence (entry `L85D` ) reads 0.0563

Field sfGFP reporter fluorescence (entry `D131R` ) reads 0.17

Field sfGFP reporter fluorescence (entry `E44A` ) reads 0.0746
